These measurements were taken from patent US20220040297A1.

Could you please report measured ratio of amounts bound (vs GLS3000) for the items listed next?
Biological target: CD3ε homodimer protein (human, UniProt P07766 23-126, limits assumed)
Sequence (P07766 23-126 limits assumed): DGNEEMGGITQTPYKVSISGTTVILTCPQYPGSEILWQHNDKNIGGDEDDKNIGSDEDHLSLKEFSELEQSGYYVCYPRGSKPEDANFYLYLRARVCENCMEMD
Test: SPR, immobilized CD3ε homodimer;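 further: biacore T200 surface plasmon resonance at 25 °C, antibody variants flowed as analytes over amine-coupled CD3ε homodimer on a CM4 chip, variant binding amount divided by that of GLS3000 antibody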
Format: numeric value only, no unit, no commentary.

Measured ratio of amounts bound (vs GLS3000) of GLS3000 T31P (antibody, name in Kabat numbering, V domains shown, one-arm format as m2) VH: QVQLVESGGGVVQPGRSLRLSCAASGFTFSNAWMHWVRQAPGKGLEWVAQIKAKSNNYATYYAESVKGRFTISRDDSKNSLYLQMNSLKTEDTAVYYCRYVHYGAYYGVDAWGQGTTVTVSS VL: DIVMTQSPLSLPVTPGEPASISCRSSQSLVHSNRNPYLHWYQQKPGQAPRLLIYKVSNRFSGVPDRFSGSGSGTDFTLKISRVEAEDVGVYYCGQGTQVPYTFGQGTKLEIK : 0.31

Measured ratio of amounts bound (vs GLS3000) of GLS3000 N28T (antibody, name in Kabat numbering, V domains shown, one-arm format as m2) VH: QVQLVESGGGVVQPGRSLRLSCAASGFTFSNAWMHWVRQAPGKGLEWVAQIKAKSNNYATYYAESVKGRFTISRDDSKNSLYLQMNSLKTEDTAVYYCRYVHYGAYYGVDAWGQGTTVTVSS VL: DIVMTQSPLSLPVTPGEPASISCRSSQSLVHSTRNTYLHWYQQKPGQAPRLLIYKVSNRFSGVPDRFSGSGSGTDFTLKISRVEAEDVGVYYCGQGTQVPYTFGQGTKLEIK : 0.45
